Task for the reader: assign each of the following binders its reported kon.
# TGT: T1, human beta CGRP (SEQ ID NO: 81) (human, not fully specified)
# T1 construct: also called human βCGRP; hβCGRP
# T1 peptide: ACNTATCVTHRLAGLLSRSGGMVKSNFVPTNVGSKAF
# TEST PROTOCOL: SPR, 37 C, mutein captured, CGRP analyte
One number for each entry, in M⁻¹ s⁻¹.

BINDER: lipocalin mutein SEQ ID NO: 10 (designed binder, biotinylated by NHS chemistry for capture in SPR) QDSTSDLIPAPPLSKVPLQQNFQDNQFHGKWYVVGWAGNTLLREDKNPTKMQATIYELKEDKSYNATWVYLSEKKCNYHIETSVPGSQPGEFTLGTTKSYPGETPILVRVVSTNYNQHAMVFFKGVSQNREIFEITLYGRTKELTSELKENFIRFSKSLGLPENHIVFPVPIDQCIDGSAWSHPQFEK
MEASURE UNIT: M⁻¹ s⁻¹
kon: 2.14e+06
--
BINDER: lipocalin mutein SEQ ID NO: 23 (designed binder, biotinylated by NHS chemistry for capture in SPR) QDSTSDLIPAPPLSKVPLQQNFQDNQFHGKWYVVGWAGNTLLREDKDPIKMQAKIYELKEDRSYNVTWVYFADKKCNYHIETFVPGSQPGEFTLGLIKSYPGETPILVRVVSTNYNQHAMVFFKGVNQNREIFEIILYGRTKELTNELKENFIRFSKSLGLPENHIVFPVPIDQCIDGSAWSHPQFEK
MEASURE UNIT: M⁻¹ s⁻¹
kon: 2.84e+06

For the next question, use this binder.
Annotate the binder lipocalin mutein SEQ ID NO: 21 (designed binder, biotinylated by NHS chemistry for capture in SPR) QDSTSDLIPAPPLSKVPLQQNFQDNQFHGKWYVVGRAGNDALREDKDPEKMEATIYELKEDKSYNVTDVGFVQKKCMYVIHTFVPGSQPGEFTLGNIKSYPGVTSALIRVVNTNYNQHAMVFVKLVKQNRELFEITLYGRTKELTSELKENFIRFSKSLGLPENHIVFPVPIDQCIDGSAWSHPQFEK with its measured kon.
2.36e+06
